Provenance of the data: PubChem BioAssay AID1996

Condition notes: buffer; pH 7.4; 200.0 µM
Below is a list of entries, each paired with its recorded solubility kinetic value.
Output spec: scalar in µg/mL, unitless text.

Solved cases (10 shown):
// returns reported solubility kinetic for input Cc1cc(NC(=O)c2ccccc2)no1
28.8

// returns reported solubility kinetic for input COC(=O)CSc1ncnc2c1sc1nc3c(cc12)COC(C)(C)C3
1.6

// returns reported solubility kinetic for input CC1(C)CC(=O)N(c2cc(Cl)cc(Cl)c2)C(=O)C1
11.7

// returns reported solubility kinetic for input O=S(=O)(Nc1ccccc1O)c1ccc(-c2ccccc2)cc1
12.3

// returns reported solubility kinetic for input CC1CC(C)CN(C(=O)c2ccc3ccccc3c2)C1 (centres undefined)
33.3

// returns reported solubility kinetic for input COc1cc(NC(=O)CCN2CCN(CCO)CC2)cc(OC)c1
44.5

// returns reported solubility kinetic for input CCc1ccc(NC(=O)C2C3CCC(O3)C2C(=O)O)cc1 (centres undefined)
39.3

// returns reported solubility kinetic for input COc1cccc(NCc2cc(=O)oc3cc(C)c(C(C)C)cc23)c1
2.8

// returns reported solubility kinetic for input Cc1ccc2nc(SC(C)C(=O)N3CCOCC3)[nH]c2c1 (centres undefined)
38.3

// returns reported solubility kinetic for input N/C(=N\OC(=O)CC1CCCCC1)c1cccc(Br)c1
0.6

Continuing:
// returns reported solubility kinetic for input Cc1onc(-c2c(Cl)cccc2Cl)c1C(=O)N(C)Cc1ccccc1
40.9

// returns reported solubility kinetic for input CCCCCn1c(=O)c(C(=O)OCC)c(Cl)c2ccccc21
6.5

// returns reported solubility kinetic for input COc1ccc(NC(=O)c2oc3ccccc3c2CSC)cn1
3

---

Condition notes: buffer; pH 7.4; 200.0 µM
Below is a list of entries, each paired with its recorded solubility kinetic value.
Output spec: scalar in µg/mL, unitless text.

Solved cases (10 shown):
// returns reported solubility kinetic for input COc1ccccc1CNCC(c1ccccc1)c1ccccc1
33.6

// returns reported solubility kinetic for input COc1ccccc1CCNC(=O)c1csc2c1CCCC2
1

// returns reported solubility kinetic for input O=C(c1ccc(C(=O)N2CCN(c3ccccc3F)CC2)nc1)N1CCN(c2ccccc2F)CC1
3.5

// returns reported solubility kinetic for input Cc1ccc(C(=O)CCC(=O)Nc2ccc(C)cn2)cc1
3.4

// returns reported solubility kinetic for input CC(C)c1ccc[n+](-c2nc([O-])sc2C=O)c1
27.4

// returns reported solubility kinetic for input Cc1nc2ccc(NC(=O)Cc3ccccc3F)cc2s1
8

// returns reported solubility kinetic for input COc1ccc(CNC(=O)Cc2cccs2)cc1
26.9

// returns reported solubility kinetic for input COc1ccc(OCCNC(=O)CCCO)cc1
4

// returns reported solubility kinetic for input CCOC(=O)c1csc(NC(=O)CCSc2ccccc2)n1
1.1

// returns reported solubility kinetic for input COc1ccc2oc(C(=O)NCCC(C)C)c(C)c2c1
1.8

Continuing:
// returns reported solubility kinetic for input CCc1ccccc1Nc1nc2ccccc2[nH]1
33.2

// returns reported solubility kinetic for input O=C(Nc1nc2c(s1)CN(Cc1ccccc1)CC2)C1CCC1
40

// returns reported solubility kinetic for input Cc1cc2nc(-c3ccc(=O)[nH]c3)n(C)c2cc1C
14.1

// returns reported solubility kinetic for input CCn1c(=S)[nH]c2cc(S(=O)(=O)N3CCOCC3)ccc21
34.2

// returns reported solubility kinetic for input O=C(c1ccccc1)N1CCCC(C(=O)N2CCN(c3ccccc3)CC2)C1 (centres undefined)
46.8

// returns reported solubility kinetic for input CN(C1CCS(=O)(=O)C1)S(=O)(=O)c1ccc2ccccc2c1 (centres undefined)
9.2

// returns reported solubility kinetic for input CCOc1ccccc1NC(=S)NC(=O)C1CC1
2.6

// returns reported solubility kinetic for input O=C(NC1CCCCC1)c1ccc(-c2ccccc2[N+](=O)[O-])o1
2.9

// returns reported solubility kinetic for input CCC1C(C#N)=C(N)Oc2c1c(=O)oc1ccccc21 (centres undefined)
8.6

// returns reported solubility kinetic for input COc1ccc(NC(=O)C2=CN3CCS(=O)(=O)N=C3C=C2)c(OC)c1
37.8
